- procedure-text: chemical genetic growth profiling, strain panel (AID 1159580);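 also: tested at 20 µM; growth read once vehicle control cultures reached saturation at 30 °C; 1 = growth at the plate median or of vehicle wells; lower values mean less growth of the strain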
- condition-set: S. cerevisiae deletion strains, growth OD, locus YNL153C, strain GIM3, stronger effect = lower value
Out of some 5,500 compounds screened, about 2,000 (36%) were called active. Inconclusive results (about 18%) are left out. The list shows a part of the results.
Field: normalized growth. Provide a value for each of the compounds that follow.
Numbers only.

C/C(=C\C(=O)Nc1ccc(F)cc1)Nc1ccc(F)cc1 | 1.04
O=C1c2ccccc2C(=O)C1(c1ccccc1)[N+](=O)[O-] | 0.803
CCc1nnc(N=CNO)s1 | 0.965

# return normalized growth for each item in the list
1. Cc1ccc(C)n1-c1ccc(C(=O)NNS(=O)(=O)c2ccc(Cl)cc2)cc1
2. CSc1nc2ccccc2[nH]1
3. COc1cc([C@@H]2c3cc4c(cc3C(OC3O[C@@H]5COC(C)O[C@H]5[C@H](O)[C@H]3O)C3COC(=O)[C@@H]32)OCO4)cc(OC)c1O (some centres undefined)
4. OC1(c2ccc(F)cc2)Cc2ccccc2C2=NCCN21 (centres undefined)

Ans.
1. 1.01
2. 1.02
3. 1.02
4. 0.985

# return normalized growth for each item in the list
1. Nc1ncnc2c1ncn2C1OC2COP(O)(=S)O[C@@H]2[C@@H]1O (some centres undefined)
2. C#CCN(C)Cc1ccccc1
3. Nc1nc(=S)c2[nH]cnc2[nH]1
4. CC1COc2c(N3CCN(C)CC3)c(F)cc3c(=O)c(C(=O)O)cn1c23 (centres undefined)
5. CC[C@@]1(O)C[C@H](O[C@H]2C[C@H](N(C)C)[C@H](O)[C@H](C)O2)c2c(cc3c(c2O)C(=O)c2c(O)cccc2C3=O)[C@H]1C(=O)OC
6. O=C(NNC(=S)Nc1cccc(Cl)c1)C1CC1
7. O=C1C2C=CC=CC2=NC(=S)N1CCN1CCC(=C(c2ccc(F)cc2)c2ccc(F)cc2)CC1 (centres undefined)

Ans.
1: 1.03; 2: 1.15; 3: 0.992; 4: 1.05; 5: 0.94; 6: 0.965; 7: 0.578

# return normalized growth for each item in the list
1. CCOC(=O)Cc1csc(N=CNO)n1
2. C=C[C@@](C)(O)CCC1C(=C)C[C@H](OC(C)=O)C2C(C)(C)CCCC12C (some centres undefined)
3. COc1cc(C(O)CO)ccc1O (centres undefined)
4. COC(=O)c1cc(=O)c(O)c2c(O)c(O)ccc2c1
5. CCCCCCC(C)OC(=O)COc1cc(Cl)c(Cl)cc1Cl (centres undefined)
6. CC(C)(Sc1ccc(CCN(CCCCC2CCCCC2)C(=O)NC2CCCCC2)cc1)C(=O)O

Ans.
1: 1.01; 2: 1.02; 3: 1.04; 4: 0.841; 5: 0.996; 6: 0.986
